Hey, just so you know, these numbers are from ChEMBL document CHEMBL1914355.

experimental-details: Half life in rat at 1 mg/kg, iv administered as single dose
Type: ADME, organism-based
Parameters: dose 1 mg/kg, route intravenous
condition-summary: in vivo
measured-property: half-life (h)

chemical-smiles	value-units	half-life
Cc1cc(OC[C@@H]2CN(C)c3ccccc3O2)cc(C)c1C(=O)Nc1cc(CC(=O)O)ccc1Cl	h	6.2
Cc1cc(OC[C@@H]2CN(C)c3ccccc3O2)cc(C)c1C(=O)Nc1cc(C(C)(C)C(=O)O)ccc1Cl	h	6.5

###

experimental-details: Kinetic solubility of the compound
Format: physicochemical
condition-summary: read-out: Kinetic_solubility
measured-property: solubility kinetic (µg/mL)

chemical-smiles	measured-property	meas-value
Cc1cc(C(=O)Nc2cc(CC(=O)O)ccc2Cl)c(C)cc1OC[C@@H]1CN(C)c2ccccc2O1	solubility kinetic	17
Cc1cc(OC[C@@H]2CN(C)c3ccccc3O2)cc(C)c1C(=O)Nc1cc(C(C)(C)C(=O)O)ccc1Cl	solubility kinetic	490
Cc1cc(OC[C@@H]2CN(C)c3ccccc3O2)ccc1C(=O)Nc1cc(CC(=O)O)ccc1Cl	solubility kinetic	129
Cc1cc(OC[C@@H]2CN(C)c3ccccc3O2)cc(C)c1C(=O)Nc1cc(C2(C(=O)O)CC2)ccc1Cl	solubility kinetic	321

P: CN1C[C@@H](COc2ccc(C(=O)Nc3cc(C(C)(C)C(=O)O)ccc3Cl)c(Cl)c2)Oc2ccccc21
Q: Cc1cc2c(CC(=O)O)cccc2n1C(=O)c1ccc(OC[C@@H]2CN(C)c3ccccc3O2)cc1
R: Cc1cc(OC[C@@H]2CN(C)c3ccccc3O2)cc(C)c1C(=O)Nc1cc(CC(=O)O)ccc1Cl
Request: Returns the items ordered by solubility kinetic, from maximum to minimum. I would appreciate it if you listed the labels in the requested order.
Result: R, P, Q
